- Experimental details: Systemic absorption of acarbose estimated from drug excretion in human urine
- Assay type: ADME
- Set-up: dosed compound name acarbose
Endpoint label: Fa (%)
The response must be a number in % with no trailing unit.

Request: Quote Fa reported for C[C@H]1O[C@H](O[C@H]2[C@H](O)[C@@H](O)[C@@H](O[C@H]3[C@H](O)[C@@H](O)C(O)O[C@@H]3CO)O[C@@H]2CO)[C@H](O)[C@@H](O)[C@@H]1N[C@H]1C=C(CO)[C@@H](O)[C@H](O)[C@H]1O (stereo partly specified) please.
Response: 1.7

Data origin: ChEMBL document CHEMBL3526002
